protein stability index values by entry
B1: WDR41 (parent)
chain: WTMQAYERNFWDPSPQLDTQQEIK

Variants of: B1
method.description: protein stability index of a GFP-peptide fusion (GPS, HEK-293T) (PSI 1-6); higher = more stable;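 also: lentivirally expressed fusions sorted by FACS into six bins by GFP to DsRed ratio, PSI derived from sequencing read proportions per bin multiplied by bin number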
test.settings: c terminus: a fixed tail appended
measurement.label: protein stability index

| mutant.designation | result |
| --- | --- |
| P13D | 3.07 |
| E7A | 2.02 |
| M3C | 1.97 |
| D12G | 1.96 |
| R8H | 3.01 |
| N9I | 2.04 |
| T2G | 2.93 |
| T2A | 2.01 |
| T19R | 2.05 |
| I23L | 2.91 |
| K24F | 2.01 |
| I23G | 3.05 |
| Q4T | 1.95 |
| D12M | 2.93 |
